protocol.description: Selectivity for Trypanosoma cruzi triosephosphate isomerase over human triosephosphate isomerase
Entries and their measured Ratio follow.

Below, each entry is followed by its recorded Ratio result.
# test.smiles, Ratio
measured = [
    ("CCN(CC)CCCNS(=O)(=O)NCCCN(CC)CC", "> 4"),
    ("CCOC(=O)c1c(-c2ccccc2)[n+]([O-])c2ccc(CN3CCN(C/C=C/c4ccccc4)CC3)cc2[n+]1[O-]", "> 4"),
    ("O=[N+]([O-])c1ccc(/C=N/NC(=S)Nc2ccccc2)s1", "> 4"),
    ("CCCCNC(=O)N/N=C/c1c(C)no[n+]1[O-]", "> 4"),
    ("C/C(=C\\c1ccc2c(c1)OCO2)[N+](=O)[O-]", "> 4"),
]

IN: What value of Ratio has been reported for the following compound? N#Cc1c2ccccc2[n+]([O-])n1-c1cccc2ccccc12
OUT: > 4

IN: Return reported Ratio; argument: Cc1ccc(-c2nsc(S(=O)(=O)c3ccc(C)cc3)n2)cc1
OUT: > 4

IN: Ratio for CC(=O)NCc1ccccc1 ?
OUT: > 4

---

Recorded inhibition for the following molecules
tested.system: Triosephosphate isomerase, glycosomal (Trypanosoma cruzi) (UniProt P52270)
Sequence (P52270 whole entry): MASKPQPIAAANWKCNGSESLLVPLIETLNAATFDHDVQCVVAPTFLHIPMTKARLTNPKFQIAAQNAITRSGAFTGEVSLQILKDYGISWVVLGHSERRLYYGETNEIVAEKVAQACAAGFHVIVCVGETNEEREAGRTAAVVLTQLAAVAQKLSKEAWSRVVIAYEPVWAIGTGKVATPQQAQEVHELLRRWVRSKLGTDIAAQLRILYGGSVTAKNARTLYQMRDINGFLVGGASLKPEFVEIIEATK
protocol.description: Inhibition of Trypanosoma cruzi triosephosphate isomerase at 400 uM after 2 hrs
A complete answer gives the number and then names the unit.

Sample records with inhibition:
# molecule, tested.system, result
data = [
    ("[O-][n+]1onc(-c2ccccc2)c1CN1CCN(c2ncccn2)CC1", "Triosephosphate isomerase, glycosomal (Trypanosoma cruzi) (UniProt P52270)", "8%"),
    ("O=C(N/N=C/c1ccc([N+](=O)[O-])o1)Oc1ccccc1", "Triosephosphate isomerase, glycosomal (Trypanosoma cruzi) (UniProt P52270)", "27%"),
]

IN: Dear colleague, I am looking for the recorded inhibition of the following molecule: O=C(/C=C/c1ccc([N+](=O)[O-])o1)N1CCN(C/C=C/c2ccccc2)CC1
OUT: 0%

IN: Requested field: inhibition. Item: O=[N+]([O-])c1ccc2c(c1)[n+]([O-])c1n2CCC1
OUT: 35%

IN: Quick one: inhibition for CCCCNS(=O)(=O)NCCCC ?
OUT: 0%

---

Tested on: Trypanosoma cruzi
protocol.description: Antiparasitic activity against Trypanosoma cruzi T2 epimastigotes assessed as growth inhibition at 25 uM after 5 days
Assay type: functional
Active and inactive are the calls of the source. No rule for the calls is given here.
readout.kind: Activity

# test.smiles, Activity
rows = [
    ("COCCNC(=O)N/N=C/c1ccc2no[n+]([O-])c2c1", "Active"),
    ("C=CCNC(=S)N/N=C/C=C/c1ccco1", "Active"),
    ("Nc1ccc2c(c1)[n+]([O-])c1cc(Cl)ccc1[n+]2[O-]", "Active"),
    ("O=C1C(=Cc2ccc([N+](=O)[O-])cc2)C(=O)N(Cc2ccccc2)S(=O)(=O)N1Cc1ccccc1", "Active"),
    ("Cc1c(/C=C/c2ccc(N(C)C)cc2)[n+]([O-])cn[n+]1[O-]", "Active"),
]

IN: Entry under review: O=C(/C=C/c1ccccc1)c1ccccc1O . Reported Activity?
OUT: Active

---

tested.system: Triosephosphate isomerase, glycosomal (Trypanosoma cruzi) (UniProt P52270)
protocol.description: Inhibition of Trypanosoma cruzi triosephosphate isomerase at 400 uM after 2 hrs
Answer 0.0 if inhibition is under 10%, and 1.0 if it is 10% or more.

Worked examples follow.
# test.smiles, qualitative.label
records = [
    ("COc1ccc(NCc2c(-c3ccccc3)no[n+]2[O-])cc1", 1.0),
    ("C=CCNC(=S)N/N=C/c1cccs1", 0.0),
    ("[O-][n+]1onc2ccc(/C=C\\c3ccc(Cl)cc3)cc21", 0.0),
    ("O=C(CCl)Oc1ccc2c(c1)[n+]([O-])c1cc(Br)ccc1[n+]2[O-]", 1.0),
]

IN: Textbook exercise: given the entry [O-][n+]1c2ccc(O)cc2[n+]([O-])c2cc(Cl)c(Cl)cc21 , state whether its inhibition is greater than or equal to 10%.
OUT: 1.0

IN: Record [O-][N+]1=c2ccccc2=[N+]([O-])C12CCCC2 ; criterion: inhibition no lower than 10%. Met?
OUT: 1.0

IN: Decide: is the reported value of inhibition for Cc1no[n+]([O-])c1/C=N/NC(N)=O equal to or greater than 10%?
OUT: 0.0

IN: Reported inhibition reaches at least 10% for C=CCNC(=S)N/N=C/c1ccc2c(c1)[n+]([O-])c(C#N)c(N)[n+]2[O-] ?
OUT: 1.0

IN: hey, is inhibition for this one >= 10%? O=C(NCCc1ccccc1)N/N=C/c1ccc2no[n+]([O-])c2c1
OUT: 1.0

IN: Confirm if inhibition reported for the molecule Cn1c2ccc(Cl)cc2c(-c2ccccc2)[n+]1[O-] is 10% or above.
OUT: 1.0

IN: Could you please find out whether NC1=NS(=O)(=O)N=C(N)C1=Cc1ccc([N+](=O)[O-])o1 has inhibition that meets 10% or exceeds it?
OUT: 1.0
